From: patent US20260132132A1

- Target Desc: Human Factor XIIa (hFXIIa) (Homo sapiens, UniProt P00748)
- Sequence (P00748 373-615 limits assumed): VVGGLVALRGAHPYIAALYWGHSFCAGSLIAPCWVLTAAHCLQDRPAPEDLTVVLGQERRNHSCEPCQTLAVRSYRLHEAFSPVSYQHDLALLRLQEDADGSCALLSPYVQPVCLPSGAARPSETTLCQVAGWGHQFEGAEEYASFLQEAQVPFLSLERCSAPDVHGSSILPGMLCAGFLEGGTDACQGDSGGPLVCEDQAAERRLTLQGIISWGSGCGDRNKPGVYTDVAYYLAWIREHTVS
- Sequence (P00748 20-372 partner limits assumed): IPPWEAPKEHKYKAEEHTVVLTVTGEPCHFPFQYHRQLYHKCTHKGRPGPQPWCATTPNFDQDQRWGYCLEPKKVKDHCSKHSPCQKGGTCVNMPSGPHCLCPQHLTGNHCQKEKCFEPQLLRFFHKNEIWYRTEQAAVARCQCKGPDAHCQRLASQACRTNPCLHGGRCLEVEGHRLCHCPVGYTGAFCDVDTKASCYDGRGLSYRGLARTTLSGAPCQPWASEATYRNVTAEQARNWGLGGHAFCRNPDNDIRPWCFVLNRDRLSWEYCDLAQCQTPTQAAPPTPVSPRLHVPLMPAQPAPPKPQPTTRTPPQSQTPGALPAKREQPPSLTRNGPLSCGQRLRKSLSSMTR
pIC50: −log10 of the molar value.
Exercise: for every item that follows, state its recorded pIC50.

# input Notebook: pull reported pIC50 for Human Factor XIIa (hFXIIa) (Homo sapiens, UniProt P00748), entry Cc1cc(CNC(=O)c2nn(-c3cccc(Cl)c3)c3c2CCN(c2ccc4c(c2)C(=O)N(C)[C@H](CO)CO4)C3=O)nn1C [Example 1351]
# output 5.00 to 5.52

# input Same question, CCNC(=O)c1nn(-c2cccc(Cl)c2)c2c1CCN(c1ccc3c(c1)C(=O)N(C)CC(=O)N3C)C2=O [Example 1375] this time
# output 5.00 to 5.52

# input Same question, CNC(=O)c1nn(-c2cccc(Cl)c2)c2c1CCN(c1ccc3c(c1)C(=O)N(C)CC3)C2=O [Example 1334] this time
# output 6.00 to 6.52

# input Same question, O=C(NCC1CC1)c1nn(-c2cccc(Cl)c2)c2c1CCN(c1ccc3c(c1)CN(CC1CC1)CC3)C2=O [Example 1036] this time
# output 6.00 to 6.52

###

Exercise: for every item that follows, state its recorded pIC50.
- Target Desc: Human Factor XIIa (hFXIIa) (Homo sapiens, UniProt P00748)
- Sequence (P00748 373-615 limits assumed): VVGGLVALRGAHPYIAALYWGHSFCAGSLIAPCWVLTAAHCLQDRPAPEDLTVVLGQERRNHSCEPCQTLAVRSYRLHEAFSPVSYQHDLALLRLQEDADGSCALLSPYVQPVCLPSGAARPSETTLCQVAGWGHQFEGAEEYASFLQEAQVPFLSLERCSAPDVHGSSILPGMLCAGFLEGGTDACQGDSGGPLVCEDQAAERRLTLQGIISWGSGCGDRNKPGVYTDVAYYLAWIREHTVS
- Sequence (P00748 20-372 partner limits assumed): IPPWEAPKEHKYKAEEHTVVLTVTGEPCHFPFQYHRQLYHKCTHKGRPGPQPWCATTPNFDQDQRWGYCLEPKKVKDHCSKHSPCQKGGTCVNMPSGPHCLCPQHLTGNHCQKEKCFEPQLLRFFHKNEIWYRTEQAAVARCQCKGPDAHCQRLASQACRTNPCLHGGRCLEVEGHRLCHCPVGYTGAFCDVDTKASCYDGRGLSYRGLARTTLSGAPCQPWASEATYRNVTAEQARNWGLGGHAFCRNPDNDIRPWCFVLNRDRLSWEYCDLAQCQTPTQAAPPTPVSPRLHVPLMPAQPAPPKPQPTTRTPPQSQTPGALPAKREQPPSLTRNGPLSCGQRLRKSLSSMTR
pIC50: −log10 of the molar value.

# input Any idea what pIC50 was measured for CCNC(=O)c1nn(-c2cccc(Cl)c2)c2c1CCN(c1ccc3c(c1)C(=O)N(CCO)[C@H](C)CO3)C2=O [Example 1392] ?
# output 5.00 to 5.52

# input Same question, O=C(N[C@@H]1CCOC1)c1nn(-c2cccc(Cl)c2)c2c1CCN(c1ccc3c(c1)CN(CCO)CC3)C2=O [Example 1108] this time
# output 6.52 to 7.00

# input Same question, CN1CCc2ccc(N3CCc4c(C(=O)NC5COCC56CC6)nn(-c5cccc(Cl)c5)c4C3=O)cc2C1=O (stereo not drawn) [Example 1438] this time
# output 6.52 to 7.00

# input Same question, CCNC(=O)c1nn(-c2cccc(Cl)c2)c2c1CCN(c1ccc3c(c1)NCCO3)C2=O [Example 1422] this time
# output 4.40 to 5.00

# input Same question, CN1Cc2ccc(N3CCc4c(C(=O)NCC5CC5)nn(-c5cccc(Cl)c5)c4C3=O)cc2C1=O [Example 1192] this time
# output 5.00 to 5.52

# input Same question, CN1CCc2ccc(N3CCc4c(C(=O)NC5CCOC5(C)C)nn(-c5cccc(Cl)c5)c4C3=O)cc2C1=O (stereo not drawn) [Example 1197] this time
# output 6.00 to 6.52

# input Same question, CN1CCc2ccc(N3CCc4c(C(=O)NC(C(=O)O)c5cccnc5)nn(-c5cccc(Cl)c5)c4C3=O)cc2C1=O (stereo not drawn) [Example 1328] this time
# output 6.00 to 6.52

# input Same question, O=C(N[C@H](CO)c1ccccc1)c1nn(-c2cccc(Cl)c2)c2c1CCN(c1cccc(CN3CCCCC3)c1)C2=O [Example 1008] this time
# output 6.00 to 6.52

# input Same question, CCNC(=O)c1nn(-c2cccc(Cl)c2)c2c1CCN(c1ccc(OC)c(N3CCCC3=O)c1)C2=O [Example 1401] this time
# output 5.52 to 6.00

# input Same question, CN1CCc2ccc(N3CCc4c(C(=O)NCC5(CO)COC5)nn(-c5cccc(Cl)c5)c4C3=O)cc2C1=O [Example 1252] this time
# output 6.00 to 6.52

# input Same question, CCNC(=O)c1nn(-c2cccc(Cl)c2)c2c1CCN(c1ccc(OC)c(CN3CCCCC3)c1)C2=O [Example 1419] this time
# output 5.52 to 6.00

# input Same question, O=C(NCC1CC1)c1nn(-c2cccc(Cl)c2)c2c1CCN(c1ccc3c(c1)CN(CCO)CC3(F)F)C2=O [Example 1300] this time
# output 5.00 to 5.52

# input Same question, CN1CCc2ccc(N3CCc4c(C5=NCCO5)nn(-c5cccc(Cl)c5)c4C3=O)cc2C1=O [Example 1353] this time
# output 6.00 to 6.52

# input Same question, CC1CCN(Cc2cccc(N3CCc4c(C(=O)NCc5ccccc5)nn(-c5cccc(Cl)c5)c4C3=O)c2)C1 (stereo not drawn) [Example 1038] this time
# output 6.00 to 6.52

# input Same question, CN1CCc2ccc(N3CCc4cnn(-c5cc(Cl)cc(CN)c5)c4C3=O)cc2C1=O [Example 2047] this time
# output 4.40 to 5.00
